Hey, just so you know, these numbers are from PubChem BioAssay AID1259313.

- Tested on: Glutamate receptor ionotropic, NMDA 3A (GRIN3A) ligand-binding domain
- protocol.details: binders of NR3A ligand-binding domain, primary screen, biophysical, differential scanning fluorimetry, uHTS (AID 1259313)
- experimental.context: NR3A LBD differential scanning fluorimetry, at 25 µM, stronger effect = higher value, 0% = protein alone, 100% = glycine-bound protein
Out of some 340,000 compounds screened, about 8,500 (2.5%) were called active. The list comes from a sample in which actives are over-represented; it also holds close analogues and randomly drawn compounds.
metric: Tm shift relative to glycine control

- molecule: "O=C(/C=C/c1cn(-c2ccccc2)nc1-c1ccc2c(c1)OCCO2)NCCCN1CCOCC1"
  Tm shift relative to glycine control: "-0.74% (inactive)"
- molecule: "C=CCOc1ccc(/C=C2\\SC(=S)N(CCC(=O)O)C2=O)cc1"
  Tm shift relative to glycine control: "1.33% (inactive)"
- molecule: "O=C(Nc1ccc(C2CC2(Cl)Cl)cc1)c1cccc([N+](=O)[O-])c1 (configuration not stated)"
  Tm shift relative to glycine control: "-0.36% (inactive)"
- molecule: "CC1=C(C(=O)OC(C)(C)C)C(c2ccc(Br)cc2)NC(=O)N1CCCC(=O)O (configuration not stated)"
  Tm shift relative to glycine control: "0.08% (inactive)"
- molecule: "Cc1cccc(N=C2NC(=O)CS2)c1C"
  Tm shift relative to glycine control: "5.95% (inactive)"
- molecule: "CCOC(=O)N1CCN(S(=O)(=O)c2ccc(C(=O)Nc3ccc(F)cc3F)cc2)CC1"
  Tm shift relative to glycine control: "-2.71% (inactive)"
- molecule: "C=CCn1c(=NC(=O)c2cccs2)sc2cc(NC(C)=O)ccc21"
  Tm shift relative to glycine control: "2.65% (inactive)"
- molecule: "CN(CC(=O)NCCc1ccc(S(N)(=O)=O)cc1)CC(=O)Nc1ccc(F)c(F)c1F"
  Tm shift relative to glycine control: "-1.98% (inactive)"

Read off the recorded Tm shift relative to glycine control for Cc1ccc(-c2nn(-c3ccccc3)cc2/C=C2\SC(=S)N(CCCCCC(=O)O)C2=O)o1 -394% (inactive)

Using known records, supply Tm shift relative to glycine control for FC(F)(F)c1cccc(N/N=C/c2ccccc2)c1 6.56% (inactive)

Hello, please tell me recorded Tm shift relative to glycine control for this one: COc1ccc(-c2nn(-c3ccccc3)cc2C(=O)Nc2nccs2)cc1OC -1.92% (inactive)

* * *

- Test system: Glutamate receptor ionotropic, NMDA 3A (GRIN3A) ligand-binding domain
- protocol.details: binders of NR3A ligand-binding domain, primary screen, biophysical, differential scanning fluorimetry, uHTS (AID 1259313)
- experimental.context: NR3A LBD differential scanning fluorimetry, at 25 µM, stronger effect = higher value, 0% = protein alone, 100% = glycine-bound protein
Among all 340,000 compounds or so, about 8,500 (2.5%) were called active. The sample holds actives, similar compounds and a random draw of the others, so the mix is not that of the screen.
# Tm shift relative to glycine control annotations
# output: bare number, implied unit %

- compound: "O=C(Cc1ccc(Cl)c(Cl)c1)Nc1ccc(SC(F)F)cc1"
  Tm shift relative to glycine control, %: 25.9

Recall and state the measured Tm shift relative to glycine control for CCn1c(=S)[nH]c2cc(S(=O)(=O)N3CCOCC3)ccc21 . 2.56

Supply Tm shift relative to glycine control value. Item: Cc1ccc(CC(=O)Nc2ccc(OC(F)F)c(Cl)c2)cc1C 3.08

Return Tm shift relative to glycine control for the following compound: CCOC(=O)c1ccc(-n2c(CCC(=O)O)ccc2-c2ccccc2)cc1 0.18

Using known records, supply Tm shift relative to glycine control for CC(=O)[C@@]12O[C@@H]1C[C@H]1[C@@H]3CC[C@H]4C[C@@H](O)CC[C@]4(C)[C@H]3CC[C@@]12C 0

Input CCOC(=O)c1cc2cc(-c3c(C(=O)OCC)oc4cc(O)cc(O)c4c3=O)ccc2o1 , output reported Tm shift relative to glycine control. 22.4

Dear colleague, please send me the reported Tm shift relative to glycine control for COc1ccc(C2c3[nH]c4ccccc4c3C[C@H]3C(=O)N(CC(C)C)CC(=O)N23)c(OC)c1 (stereo not given in full) when you can. -1.75

Let me know recorded Tm shift relative to glycine control for CC(=O)N1CCN(CC(=O)Nc2ccc(SC(F)F)cc2)CC1 , thanks. -2.44

Output measured Tm shift relative to glycine control for this item: COc1ccccc1N1CCN(S(=O)(=O)CCNC(=O)c2ccc(OC(C)C)cc2)CC1 0.83

Fill in reported Tm shift relative to glycine control for this entry: O=C(NCCS(=O)(=O)N1CCN(c2ccccc2F)CC1)c1ccc(Br)o1 121

* * *

- Tested on: Glutamate receptor ionotropic, NMDA 3A (GRIN3A) ligand-binding domain
- protocol.details: binders of NR3A ligand-binding domain, primary screen, biophysical, differential scanning fluorimetry, uHTS (AID 1259313)
- experimental.context: NR3A LBD differential scanning fluorimetry, at 25 µM, 0% = protein alone, 100% = glycine-bound protein
Screen size: about 340,000 compounds; about 8,500 (2.5%) were called active.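 How the source made its calls: active means melting temperature shift of at least 10% of the positive control shift, at one fixed dose; inactive means the rest.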 This excerpt belongs to a sample that is enriched for actives.
Would you mind answering with one of these outcomes? T for active, F for inactive

Look over these answered cases.
- compound: "COc1ccc(CCNS(=O)(=O)c2cc3c(cc2C)NC(=O)CO3)cc1OC"
  class.label: "F"
- compound: "CS(=O)(=O)N(Cc1ccccc1)c1ccc(C(=O)NN=C2CCCCCC2)cc1"
  class.label: "F"
- compound: "COC(C(=O)Nc1ccc(S(=O)(=O)Nc2ccc(C)c(C)c2)cc1)c1ccccc1 (stereo not given)"
  class.label: "T"
- compound: "COC(C(=O)NCc1ccccc1C)c1ccccc1 (stereo not given)"
  class.label: "F"
- compound: "CN(C)c1nc(=Nc2cccc(Cl)c2)ss1"
  class.label: "F"
- compound: "CN(C)S(=O)(=O)Oc1ccccc1C(=O)Nc1ccccc1Cl"
  class.label: "F"
- compound: "COc1ccc(/C=C/C(=O)OCC(=O)N2CCN(S(=O)(=O)c3ccc(C)cc3C)CC2)cc1OC"
  class.label: "F"
- compound: "c1ccc(CN2CCC(N=C3NN=C(c4ccc5c(c4)OCCO5)CS3)CC2)cc1"
  class.label: "F"

Tell me the recorded outcome of this test for CC[C@]12c3[nH]c4cc(CCC(=O)N(C)C)ccc4c3CCN1C(=O)[C@@H](CC(=O)NCC13CC4CC(CC(C4)C1)C3)C[C@@H]2C(=O)N1CCN(C(=O)C2CC2)CC1 . F

What call does the record list for O=C(Nc1ccccc1Cl)/C(Cl)=C(\Cl)S(=O)c1ccccc1 (stereo not given) ? T

* * *

- Tested on: Glutamate receptor ionotropic, NMDA 3A (GRIN3A) ligand-binding domain
- protocol.details: binders of NR3A ligand-binding domain, primary screen, biophysical, differential scanning fluorimetry, uHTS (AID 1259313)
- experimental.context: NR3A LBD differential scanning fluorimetry, at 25 µM, stronger effect = higher value, 0% = protein alone, 100% = glycine-bound protein
Out of some 340,000 compounds screened, about 8,500 (2.5%) were called active. The entries come from a sample that favours actives as a whole.
Reported Tm shift relative to glycine control values for a set of compounds
API: value field is a number in %; no unit string.

- chemical.structure: "COc1ccc(CCNC(=O)COC(=O)Cc2ccccc2F)cc1"
  Tm shift relative to glycine control [%]: 1.52

# return recorded Tm shift relative to glycine control for entry O=c1cc(-c2ccccc2)[nH]c2cc(F)ccc12 -1.79

Identify Tm shift relative to glycine control associated with the compound O=C(CSc1ccc(C(F)(F)F)cc1[N+](=O)[O-])NCCOc1ccccc1 -6.06

For the compound N#CC1(Nc2ccc(-c3ccc(Cl)cc3)cc2)CCCC1 , report Tm shift relative to glycine control. 20.4

Return value of Tm shift relative to glycine control for input NC(=O)C1(Nc2ccc(-c3ccccc3)cc2)CCCC1 , no commentary. 2.37

* * *

- Tested on: Glutamate receptor ionotropic, NMDA 3A (GRIN3A) ligand-binding domain
- protocol.details: binders of NR3A ligand-binding domain, primary screen, biophysical, differential scanning fluorimetry, uHTS (AID 1259313)
- experimental.context: NR3A LBD differential scanning fluorimetry, at 25 µM, 0% = protein alone, 100% = glycine-bound protein
About 8,500 (2.5%) of roughly 340,000 compounds were called active.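 How the source made its calls: active means melting temperature shift of at least 10% of the positive control shift, at one fixed dose; inactive means the rest.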 This is one part of a sample in which actives are shown more often than they occur.
Pick one and only one: active, inactive

For orientation, consider the following solved cases.
- chemical.structure: "CCN(CC)S(=O)(=O)c1ccc(C(=O)N2CCN(C3=NS(=O)(=O)c4ccccc43)CC2)cc1"
  class.label: "inactive"
- chemical.structure: "COc1cc(NC(=O)c2ccc3c(c2)OCO3)ccc1NC(=O)c1cccs1"
  class.label: "active"
- chemical.structure: "O=C(COC(=O)c1c(Cl)cccc1Cl)Nc1cccc(S(=O)(=O)NC2=NCCCCC2)c1"
  class.label: "inactive"
- chemical.structure: "O=c1c(-c2ccc3c(c2)OCCO3)c(C(F)(F)F)oc2cc(O)cc(O)c12"
  class.label: "inactive"

With those in mind, consider the next compound.
# outcome recorded in this test, key = CCOC(=O)c1oc2c(CN3CCN(C)CC3)c(O)ccc2c(=O)c1-c1ccc(Br)cc1 inactive
